Provide the recorded IC50 for the entries that follow.
test system: KL2 release from HEK-293 cells; experiment: Secondary screen (Example 3b): PMA-stimulated KL2 release from HEK-293 cells, AP readout; assay type: cell-based; settings: Homo sapiens, HEK293, HEK-293 cells expressing KL2-AP, PMA 100 ng/mL, 2 h, read-out: Secondary Screen IC50 KitL2
One number for each entry, in µM.

For orientation, consider the following solved cases.
>>> value_measured("Cc1ccsc1C1Nc2ccc3ccccc3c2C2=C1C(=O)CCC2 (centres unmarked)")
28
>>> value_measured("O=C(c1c(Cl)cccc1Cl)N1CCC(Cc2ccc3c(c2)OCO3)CC1")
35.2
>>> value_measured("O=C1Nc2ccccc2/C1=N\\Nc1nc(Nc2ccccc2)nc(Nc2ccccc2)n1")
11.1

// for each molecule in input: emit IC50
1. O=C(NC1CCCCCCC1)C1CCCN(c2nc3ccc(Br)cc3[nH]2)C1 (centres unmarked)
2. Cc1ccccc1Nc1nc(NCCCO)nc2c1cnn2-c1ccccc1

5.52
16.1

----------
system: KL2 release from HEK-293 cells; assay: Secondary screen (Example 3b): PMA-stimulated KL2 release from HEK-293 cells, AP readout; format: cell-based; details: Homo sapiens, HEK293, HEK-293 cells expressing KL2-AP, PMA 100 ng/mL, 2 h, read-out: Secondary Screen IC50 KitL2
Provide the recorded IC50 for the entries that follow.

For orientation, consider the following solved cases.
>>> value_measured("O=C(NCCc1cccnc1)c1ccc(-c2cc(-c3ccc(N4CCCCC4)cc3)n[nH]2)cc1 [Compound 44]")
"> 40 µM"
>>> value_measured("Cc1cc(NCCCn2ccnc2)n2ncc(-c3ccc(Cl)cc3)c2n1 [Compound 48]")
"> 40 µM"

// returns reported IC50 for input Cc1cc(C)c2nc(N3CCNCC3)sc2c1 [Compound 49]
> 40 µM

src = patent US20240390355A1
